- TARGET_SYSTEM: 5-HT1B receptor (Homo sapiens, UniProt P28222)
- Construct: expressed in transfected cells; host or cells: CHO-K1
- Sequence (P28222 whole entry): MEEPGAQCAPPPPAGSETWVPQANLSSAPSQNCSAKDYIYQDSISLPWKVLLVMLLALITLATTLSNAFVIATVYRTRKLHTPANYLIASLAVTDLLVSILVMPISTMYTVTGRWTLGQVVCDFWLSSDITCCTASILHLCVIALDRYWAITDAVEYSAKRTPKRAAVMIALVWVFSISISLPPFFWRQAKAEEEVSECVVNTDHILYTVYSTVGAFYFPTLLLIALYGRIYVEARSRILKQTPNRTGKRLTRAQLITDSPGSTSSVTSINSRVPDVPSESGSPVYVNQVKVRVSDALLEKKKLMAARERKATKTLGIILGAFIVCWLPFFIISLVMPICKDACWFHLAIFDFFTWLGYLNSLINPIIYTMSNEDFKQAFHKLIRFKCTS
- EXPERIMENT: Serotonin receptor binding, [125I] Cyanopindolol, CHO-K1 membranes
QUANTITY_MEASURED: Ki

Q. Need Ki, item COc1ccc2[nH]cc(CCNC(=O)c3cc(=O)c(O)co3)c2c1
A. 3.71 µM

###

- TARGET_SYSTEM: MT-2 receptor (Homo sapiens, UniProt P49286)
- Construct: expressed in transfected cells; host or cells: CHP-K1 (Chinese hamster ovary) cells (so in the source)
- Sequence (P49286 1-362): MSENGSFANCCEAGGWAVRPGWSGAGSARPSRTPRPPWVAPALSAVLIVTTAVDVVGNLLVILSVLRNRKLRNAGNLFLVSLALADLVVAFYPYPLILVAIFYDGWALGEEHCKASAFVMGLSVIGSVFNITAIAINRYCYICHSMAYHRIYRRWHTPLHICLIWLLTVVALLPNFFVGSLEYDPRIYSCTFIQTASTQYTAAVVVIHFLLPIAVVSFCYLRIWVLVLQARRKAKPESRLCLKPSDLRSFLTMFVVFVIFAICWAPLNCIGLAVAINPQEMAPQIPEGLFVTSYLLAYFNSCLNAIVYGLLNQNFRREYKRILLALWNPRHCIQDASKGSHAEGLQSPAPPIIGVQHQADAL
- EXPERIMENT: 125I-melatonin binding in membranes of CHP-K1 cells, MT-2
QUANTITY_MEASURED: pKi
Field pKi (float): negative decimal logarithm of the concentration in molar.

Q. Item COc1ccc2[nH]cc(CCNC(=O)c3cc(=O)c(O)co3)c2c1 has what recorded pKi?
A. 8.15
